# target system: T1, Recombinant Human DLL4 (human, UniProt Q9NR61 27-524)
# T1 construct: Bought recombinant human DLL4 (R&D Systems Cat#1506-D4/CF); That entry includes the signal peptide (amino acids 1-25), the transmembrane region and the cytoplasmic domain; also called delta-like protein 4; Delta-like ligand 4
# assay protocol: ELISA, DLL4 coated on plate, Fab in solution, absorbance at 450 nm; signal minus noise
assay endpoint: ELISA (Signal-Noise)

[[record]]
binder = "Fab VH5-51_IGHD5-18*01>3_IGHJ4*01 G100K/G104T F29A & V3-4_IGLJ1*01 (Fab, V domains shown, Fab expressed in E. coli with CH1 (plasmid A, His6 and Flag tags) and lambda CL (plasmid E); also called KT F29A) VH: EVQLVQSGAEVKKPGESLKISCKGSGYSATSYWIGWVRQMPGKGLEWMGIIYPGDSDTRYSPSFQGQVTISADKSISTAYLQWSSLKASDTAMYYCARRKYSYTYDYFDYWGQGTLVTVSS VL: QTVVTQEPSFSVSPGGTVTLTCGLSSGSVSTSYYPSWYQQTPGQAPRTLIYSTNTRSSGVPDRFSGSILGNKAALTITGAQADDESDYYCVLYMGSGISYVFGTGTKVTVL"
readout_number = 0.02

